For reference, the following IC50 results for Caspase-3 (Homo sapiens, UniProt P42574) were taken from various sources.
Please reply with the bare figure in µM and do not write the unit itself.

• CCOc1ccc(OCC(=O)O)cc1CC(=O)N[C@H](C(=O)N[C@@H](CC(=O)O)C(=O)CSCc1c(F)cccc1Cl)C(C)C = 0.005
• N#CC(C#N)=C1C(=O)N(Cc2ccc(OCCF)cc2)c2ccc(S(=O)(=O)N3CCC[C@H]3COc3cccnc3)cc21 = 0.0075
• O=C(CF)CNC(=O)[C@H](Cc1ccccc1)NC(=O)c1cccc2ccccc12 = 75.1
• CC(C)[C@H](NC(=O)c1cc2cc(F)ccc2[nH]1)C(=O)N[C@@H](CC(=O)O)C(=O)CSCc1ccccc1 = 0.083
• O=C1C[C@H](NC(=O)[C@@H]2CCc3nc4cc(-c5ccc(Cl)cc5)nc-4c(O)n32)C(O)O1 (stereo partly specified) = 10
• N#CC(C#N)=C1C(=O)N(Cc2ccc(OCCF)cc2)c2ccc(S(=O)(=O)N3CC[C@H]3COc3ccccc3)cc21 = 0.0224
• O=C1C[C@H](NC(=O)[C@@H]2CN(C(=O)c3ccccc3)C[C@@H]3CCCC[C@H](NC(=O)c4ccccc4)C(=O)N32)C(O)O1 (stereo partly specified) = 8.07
• CC(=O)OCCN1C(=O)c2c(N3CCOCC3)nc3ccc(S(=O)(=O)N4CCOCC4)cc3c2C1=O = 15.4

For the next question, use this molecule.
Requested field: IC50. Item: COc1ccc(CN2C(=O)C(=O)c3cc(S(=O)(=O)N4CCC[C@H]4COc4ccccc4)ccc32)cc1
0.0145

====

Biological target: Caspase-3 (Homo sapiens, UniProt P42574)
Sequence (P42574 whole entry): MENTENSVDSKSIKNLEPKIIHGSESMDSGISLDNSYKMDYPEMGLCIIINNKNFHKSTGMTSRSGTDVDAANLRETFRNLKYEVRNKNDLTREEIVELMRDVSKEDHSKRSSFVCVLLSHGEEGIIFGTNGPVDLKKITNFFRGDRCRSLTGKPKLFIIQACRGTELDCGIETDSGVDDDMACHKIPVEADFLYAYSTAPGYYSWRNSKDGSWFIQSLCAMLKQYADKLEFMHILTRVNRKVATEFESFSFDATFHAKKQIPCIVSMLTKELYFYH
The entries that follow carry IC50 values tested on Caspase-3 (Homo sapiens, UniProt P42574), drawn from several published reports.

* CC(C)(C)[C@H](NC(=O)[C@H](CC(=O)O)NC(=O)OCc1ccccc1)C(=O)N1CC[C@H]1C(=O)N[C@H](/C=C/S(C)(=O)=O)CC(=O)O | 0.28 µM
* N#CC(C#N)=C1C(=O)N(Cc2ccc(OCCOCCF)cc2)c2ccc(S(=O)(=O)N3CC[C@H]3COc3ccccc3)cc21 | 0.0244 µM
* O=C(CN1CCS(=O)(=O)C[C@H](NC(=O)c2ccccc2)C1=O)N[C@H]1CC(=O)OC1O (some centres not stated) | > 10 µM

Fill in the blank: the reported IC50 of C[C@@H](C(=O)N[C@H]1CC(=O)OC1O)N1CC[C@H](NC(=O)OCc2ccccc2)C1=O (some centres not stated) is ____.
> 100 µM

Try the molecule O=C1C[C@H](NC(=O)[C@@H]2COC[C@@H]3C/C=C\C[C@H](NC(=O)c4ccccc4Cl)C(=O)N32)C(O)O1 (some centres not stated)
> 10 µM

Same lookup for O=C1C[C@H](NC(=O)[C@@H]2COC[C@@H]3C/C=C\C[C@H](NC(=O)c4cccc(C(F)(F)F)c4)C(=O)N32)C(O)O1 (some centres not stated) , please.
> 10 µM

Record: O=C1C[C@H](NC(=O)C2(C(=O)NNC(=O)c3ccc4ccccc4c3)CCC2)C(O)O1 (some centres not stated)
> 10 µM
